methodNotes: chemical genetic growth profiling, strain panel (AID 1159580);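 further: tested at 20 µM; growth read once vehicle control cultures reached saturation at 30 °C; 1 = growth at the plate median or of vehicle wells; lower values mean less growth of the strain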
studyConditions: S. cerevisiae deletion strains, growth OD, locus YLR039C, strain RIC1, active compounds read low
The campaign covered roughly 5,500 compounds. About 2,000 (36%) were called active. Another 18% or so got no clear call; they are omitted. Some of the results follow.
Listed here: items and their measured normalized growth.
readoutKind: normalized growth

{"molecule": "COC(=O)C[C@H]1C(C)(C)C(=O)[C@@H]2CC3C4=CC(=O)O[C@@H](c5ccoc5)[C@]4(C)CCC3[C@@]1(C)C2=O (stereo partly specified)", "readoutKind": "normalized growth", "testValue": 0.902}
{"molecule": "OC(CCN1CCCC1)(c1ccccc1)C1CCCCC1 (stereo unspecified)", "readoutKind": "normalized growth", "testValue": 1.05}
{"molecule": "CCCC(CC(=O)O)(C(=O)O)c1ccccc1 (stereo unspecified)", "readoutKind": "normalized growth", "testValue": 1.03}
{"molecule": "CCOP(=S)(OCC)Oc1nc(Cl)c(Cl)cc1Cl", "readoutKind": "normalized growth", "testValue": 0.898}
{"molecule": "COc1ccc2c(c1)c(CC(=O)O)c(C)n2C(=O)c1ccc(Cl)cc1", "readoutKind": "normalized growth", "testValue": 1.17}
{"molecule": "CCCCCCCCCCCC[C@H](C(=O)O)[C@@H](C)C(=O)O", "readoutKind": "normalized growth", "testValue": 1.04}
